tested on: RAW264.7; assay: Cancer chemopreventive activity in mouse RAW264.7 cells assessed as inhibition of LPS-induced nitric oxide production at 20 ug/mL treated 30 mins before LPS challenge measured after 20 hrs by Griess reagent assay

{"chem_smiles": "CC1=C(CO)C(=O)O[C@@H]([C@](C)(O)[C@H]2CC=C3[C@@H]4CC=C5CC=CC(=O)[C@]5(C)[C@H]4CC[C@@]32C)C1", "subject_of_test": "RAW264.7", "inhibition at 20 µg/mL": "76.3%"}
{"chem_smiles": "CC1=C(C)C(=O)O[C@@H]([C@](C)(O)C2=CC[C@@]3(O)[C@@H]4CC=C5CC=CC(=O)[C@]5(C)[C@H]4CC[C@]23C)C1", "subject_of_test": "RAW264.7", "inhibition at 20 µg/mL": "69.1%"}
{"chem_smiles": "CC1=C(CO)C(=O)O[C@@H]([C@](C)(O)[C@@]2(O)CC=C3[C@@H]4CC=C5CC=CC(=O)[C@]5(C)[C@H]4CC[C@@]32C)C1", "subject_of_test": "RAW264.7", "inhibition at 20 µg/mL": "100%"}
{"chem_smiles": "CC1=C(CO)C(=O)O[C@@H]([C@](C)(O)[C@@]2(O)CC[C@H]3[C@@H]4CC=C5CC=CC(=O)[C@]5(C)[C@H]4CC[C@@]32C)C1", "subject_of_test": "RAW264.7", "inhibition at 20 µg/mL": "100%"}

----------
experiment: Cytotoxicity against mouse RAW264.7 cells assessed as cell survival at 20 ug/mL by SRB assay; format: cell-based; settings: read-out: Survival
The entries below are paired with their reported viability at 20 ug/mL.
observed_property: viability at 20 ug/mL

{"compound": "CC1=C(C)C(=O)O[C@@H]([C@](C)(O)[C@@]2(O)CC[C@]3(O)[C@@H]4CC=C5C=CCC(=O)[C@]5(C)[C@H]4CC[C@]23C)C1", "measured": "100%"}
{"compound": "CC1=C(CO)C(=O)O[C@@H]([C@](C)(O)[C@@]2(O)CC=C3[C@@H]4CC=C5CC=CC(=O)[C@]5(C)[C@H]4CC[C@@]32C)C1", "measured": "70.4%"}
{"compound": "CC1=C(CO)C(=O)O[C@@H]([C@](C)(O)[C@H]2CC[C@@]3(O)[C@@H]4CC=C5CC=CC(=O)[C@]5(C)[C@H]4CC[C@]23C)C1", "measured": "100%"}
{"compound": "CC1=C(CO)C(=O)O[C@@H]([C@](C)(O)[C@@]2(O)CC[C@H]3[C@@H]4CC=C5CC=CC(=O)[C@]5(C)[C@H]4CC[C@@]32C)C1", "measured": "96.7%"}
{"compound": "CC1=C(C)C(=O)O[C@@H]([C@](C)(O)C2=CC[C@@]3(O)[C@@H]4CC=C5CC=CC(=O)[C@]5(C)[C@H]4CC[C@]23C)C1", "measured": "100%"}
{"compound": "CC1=C(CO)C(=O)O[C@@H]([C@](C)(O)[C@H]2CC=C3[C@@H]4CC=C5CC=CC(=O)[C@]5(C)[C@H]4CC[C@@]32C)C1", "measured": "100%"}
{"compound": "CC1=C(C)C(=O)O[C@@H]([C@](C)(O)[C@H]2CC[C@@]3(O)[C@@H]4CC=C5CC=CC(=O)[C@]5(C)[C@H]4CC[C@]23C)C1", "measured": "100%"}
{"compound": "CC1=C(CO)C(=O)O[C@@H]([C@](C)(O)[C@]2(O)CC[C@@]3(O)[C@@H]4CC=C5CC=CC(=O)[C@]5(C)[C@H]4CC[C@]23C)C1", "measured": "100%"}
{"compound": "CC1=C(C)C(=O)O[C@@H]([C@](C)(O)[C@]2(O)CC[C@@]3(O)[C@@H]4CC=C5CC=CC(=O)[C@]5(C)[C@H]4CC[C@]23C)C1 [WITHANOLIDE F]", "measured": "100%"}

These data points were gathered from ChEMBL document CHEMBL2331521.
